TEST METHOD NOTES: Anticoagulant activity in rabbit plasma assessed as increase in activated partial thromboplastin time
Type: functional, Oryctolagus cuniculus
READOUT: 2aPTT (µM)
Write down the numeric answer in µM and omit the unit.

The measured 2aPTT associated with O=C1CCCCN1c1ccc(N2CCc3c(-c4nc[nH]n4)nn(-c4ccc(OC(F)F)cc4)c3C2=O)cc1 reads 7.8

The molecule listed as COc1ccc(-n2nc(-c3nc[nH]n3)c3c2C(=O)N(c2ccc(N4CCCCC4=O)cc2)CC3)cc1 shows 2aPTT equal to 1.2

Notebook: CCN(CC)CCCn1cnnc1-c1nn(-c2ccc(OC)cc2)c2c1CCN(c1ccc(N3CCCCC3=O)cc1)C2=O , 2aPTT read as 11.1

According to the records, this molecule COc1ccc(-n2nc(-n3cccc3CN3CCOCC3)c3c2C(=O)N(c2ccc(N4CCCCC4=O)cc2)CC3)cc1 displays 2aPTT of 3.9

Item: COc1ccc(-n2nc(C(N)=O)c3c2C(=O)N(c2ccc(C4=NCCN4)cc2)CC3)cc1 | 2aPTT: 1

// 2aPTT value for COc1ccc(-n2nc(-c3n[nH]c(=O)n3-c3ccccc3)c3c2C(=O)N(c2ccc(N4CCCCC4=O)cc2)CC3)cc1 : 22.1

Note to self: 2aPTT recorded for COc1ccc(-n2nc(-c3nncn3CCCN3CCOCC3)c3c2C(=O)N(c2ccc(N4CCCCC4=O)cc2)CC3)cc1 was 15

Recorded result, COc1ccc(-n2nc(-c3nncn3CCN(C)C)c3c2C(=O)N(c2ccc(N4CCCCC4=O)cc2)CC3)cc1 , 2aPTT: 8

Item: COc1ccc(-n2nc(-c3n[nH]c(=O)n3-c3ccccc3C(F)(F)F)c3c2C(=O)N(c2ccc(N4CCCCC4=O)cc2)CC3)cc1 | 2aPTT: 32.1

// COc1ccc(-n2nc(-c3ncn(C)n3)c3c2CCN(c2ccc(N4CCCCC4=O)cc2)C3=O)cc1 : 2aPTT value = 3

2aPTT recorded for this molecule, O=C1CCCCN1c1ccc(N2CCc3c(-c4nc[nH]n4)nn(-c4ccc(Br)cc4)c3C2=O)cc1 , is 10.2

# 2aPTT of O=C1CCCCN1c1ccc(N2CCc3c(-c4nc[nH]n4)nn(-c4ccc(OC(F)(F)F)cc4)c3C2=O)cc1 = 12

The recorded 2aPTT for entry COc1ccc(-n2nc(-n3cccc3CN(C)C)c3c2C(=O)N(c2ccc(N4CCCCC4=O)cc2)CC3)cc1 equals 3.2

Form field 2aPTT, entry COc1ccc(-n2nc(-c3n[nH]c(C4CC4)n3)c3c2C(=O)N(c2ccc(N4CCCCC4=O)cc2)CC3)cc1 : 6

COc1ccc(-n2nc(-c3n[nH]c(C(C)(C)C)n3)c3c2C(=O)N(c2ccc(N4CCCCC4=O)cc2)CC3)cc1 has a reported 2aPTT of 4.1

The reported value for COc1ccc(-n2nc(-c3n[nH]c(=O)n3-c3ccc(OC)cc3)c3c2C(=O)N(c2ccc(N4CCCCC4=O)cc2)CC3)cc1 in terms of 2aPTT is 19.2

For this molecule ( COc1ccc(-n2nc(-c3nncn3CCCN(C)C)c3c2C(=O)N(c2ccc(N4CCCCC4=O)cc2)CC3)cc1 ), measured 2aPTT is 10.1

Memo: COc1ccc(-n2nc(C(N)=O)c3c2C(=O)N(c2ccc(N4CCCCC4=O)cc2)CC3)cc1 , reported 2aPTT: 1.4

// field: 2aPTT; key: COc1ccc(-n2nc(-c3n[nH]c(C)n3)c3c2C(=O)N(c2ccc(N4CCCCC4=O)cc2)CC3)cc1 ; value = 3.2

Data point: O=C1CCCCN1c1ccc(N2CCc3c(-c4nc[nH]n4)nn(-c4ccc(Cl)cc4)c3C2=O)cc1 ; 2aPTT = 9.9

# 2aPTT (molecule: CCN(CC)Cc1cccn1-c1nn(-c2ccc(OC)cc2)c2c1CCN(c1ccc(N3CCCCC3=O)cc1)C2=O ) is 3.9

For reference, reported 2aPTT for COc1ccc(-n2nc(C(N)=O)c3c2C(=O)N(c2ccc(C4=NCCCN4)cc2)CC3)cc1 stands at 2

Briefly, 2aPTT measured for O=C1CCCCN1c1ccc(N2CCc3c(-c4nc[nH]n4)nn(-c4ccc(F)cc4)c3C2=O)cc1 : 5.1

The recorded 2aPTT for COc1ccc(-n2nc(-c3ncnn3C)c3c2CCN(c2ccc(N4CCCCC4=O)cc2)C3=O)cc1 is 15.1

Measured 2aPTT of COCc1nc(-c2nn(-c3ccc(OC)cc3)c3c2CCN(c2ccc(N4CCCCC4=O)cc2)C3=O)n[nH]1 : 6

Record COc1ccc(-n2nc(-c3n[nH]c(C4CCCO4)n3)c3c2C(=O)N(c2ccc(N4CCCCC4=O)cc2)CC3)cc1 (stereo unspecified) . Reported 2aPTT: 7.9

---

TEST METHOD NOTES: Anticoagulant activity in rabbit plasma assessed as increase in prothrombin time
Format: functional, Oryctolagus cuniculus
READOUT: 2PT
// unit must come after the numeric part

Lab note: COc1ccc(-n2nc(-c3nncn3CCN(C)C)c3c2C(=O)N(c2ccc(N4CCCCC4=O)cc2)CC3)cc1 gave 2PT of 4.4 µM

Note to self: 2PT recorded for O=C1CCCCN1c1ccc(N2CCc3c(-c4nc[nH]n4)nn(-c4ccc(OC(F)(F)F)cc4)c3C2=O)cc1 was 6.4 µM

GET /value?item= COc1ccc(-n2nc(-c3ncn(C)n3)c3c2CCN(c2ccc(N4CCCCC4=O)cc2)C3=O)cc1 &field=2PT returns 0.9 µM

Please fill in: 2PT reported for COc1ccc(-n2nc(-c3n[nH]c(C)n3)c3c2C(=O)N(c2ccc(N4CCCCC4=O)cc2)CC3)cc1 = 1.9 µM

---

TEST METHOD NOTES: Anticoagulant activity in rabbit plasma assessed as increase in prothrombin time
Type: functional, Oryctolagus cuniculus
READOUT: 2PT
# number then unit; no other words

Lab note: measured 2PT of O=C1CCCCN1c1ccc(N2CCc3c(-c4nc[nH]n4)nn(-c4ccc(OC(F)F)cc4)c3C2=O)cc1 was 4 µM

Lookup result for COc1ccc(-n2nc(-c3n[nH]c(C4CCCO4)n3)c3c2C(=O)N(c2ccc(N4CCCCC4=O)cc2)CC3)cc1 (stereo unspecified) ; measured 2PT: 5 µM

// sample COc1ccc(-n2nc(C(N)=O)c3c2C(=O)N(c2ccc(C4=NCCN4)cc2)CC3)cc1 , its 2PT was 0.7 µM

Short answer for O=C1CCCCN1c1ccc(N2CCc3c(-c4nc[nH]n4)nn(-c4ccc(Cl)cc4)c3C2=O)cc1 : 2PT was 4.2 µM

Measured 2PT, COc1ccc(-n2nc(C(N)=O)c3c2C(=O)N(c2ccc(N4CCCCC4=O)cc2)CC3)cc1 [APIXABAN] : 0.6 µM

For reference, reported 2PT for COc1ccc(-n2nc(-c3n[nH]c(C(C)(C)C)n3)c3c2C(=O)N(c2ccc(N4CCCCC4=O)cc2)CC3)cc1 stands at 1.4 µM

---

Exercise: for every item that follows, state its recorded IC50.
Answer format: numeric, nM implied, no suffix.

Measured on Coagulation factor X (Homo sapiens), COc1ccc(-n2nc(-c3n[nH]c(C(C)(C)C)n3)c3c2C(=O)N(c2ccc(N4CCCCC4=O)cc2)CC3)cc1 has a documented IC50 of 850

Recorded IC50 for COc1ccc(-n2nc(-c3ncn(C)n3)c3c2CCN(c2ccc(N4CCCCC4=O)cc2)C3=O)cc1 on Coagulation factor X (Homo sapiens) was 2400

Here COc1ccc(-n2nc(-n3cccc3CN3CCOCC3)c3c2C(=O)N(c2ccc(N4CCCCC4=O)cc2)CC3)cc1 was tested on Coagulation factor X (Homo sapiens), and its IC50 came to 2400

I looked up COc1ccc(-n2nc(C(N)=O)c3c2C(=O)N(c2ccc(C4=NCCN4)cc2)CC3)cc1 and its IC50 for Coagulation factor X (Homo sapiens) was 1990

---

TEST METHOD NOTES: Anticoagulant activity in rabbit plasma assessed as increase in prothrombin time
Format: functional, Oryctolagus cuniculus
For each entry below, report its 2PT value.
Enter your answer as a number in µM; do not include the unit.

For reference, reported 2PT for COc1ccc(-n2nc(C(N)=O)c3c2C(=O)N(c2ccc(C4=NCCCN4)cc2)CC3)cc1 stands at 1.1

Quick note, 2PT for COc1ccc(-n2nc(-c3nncn3CCCN3CCOCC3)c3c2C(=O)N(c2ccc(N4CCCCC4=O)cc2)CC3)cc1 landed at 7.5

Data point: COc1ccc(-n2nc(-c3n[nH]c(=O)n3-c3ccc(OC)cc3)c3c2C(=O)N(c2ccc(N4CCCCC4=O)cc2)CC3)cc1 ; 2PT = 9.2

Entry COc1ccc(-n2nc(-c3ncnn3C)c3c2CCN(c2ccc(N4CCCCC4=O)cc2)C3=O)cc1 ; 2PT = 4.1

---

Exercise: state measured log10(2PT) for each of the compounds provided.
TEST METHOD NOTES: Anticoagulant activity in rabbit plasma assessed as increase in prothrombin time
Format: functional, Oryctolagus cuniculus
log10 2PT, µM

Memo: CCN(CC)Cc1cccn1-c1nn(-c2ccc(OC)cc2)c2c1CCN(c1ccc(N3CCCCC3=O)cc1)C2=O , reported log10(2PT): 0.32

Recorded log10(2PT) (compound O=C1CCCCN1c1ccc(N2CCc3c(-c4nc[nH]n4)nn(-c4ccc(F)cc4)c3C2=O)cc1 ): 0.45

Per the records, this compound ( COCc1nc(-c2nn(-c3ccc(OC)cc3)c3c2CCN(c2ccc(N4CCCCC4=O)cc2)C3=O)n[nH]1 ) has log10(2PT) equal to 0.48

Reported log10(2PT) for COc1ccc(-n2nc(-c3nc[nH]n3)c3c2C(=O)N(c2ccc(N4CCCCC4=O)cc2)CC3)cc1 was -0.15

Lab note: COc1ccc(-n2nc(-c3nncn3CCCN(C)C)c3c2C(=O)N(c2ccc(N4CCCCC4=O)cc2)CC3)cc1 gave log10(2PT) of 0.76

Measured log10(2PT), COc1ccc(-n2nc(-c3n[nH]c(=O)n3-c3ccccc3C(F)(F)F)c3c2C(=O)N(c2ccc(N4CCCCC4=O)cc2)CC3)cc1 : 1.25

Entry COc1ccc(-n2nc(-n3cccc3CN3CCOCC3)c3c2C(=O)N(c2ccc(N4CCCCC4=O)cc2)CC3)cc1 — recorded log10(2PT) = 0.23

Per the records, this compound ( COc1ccc(-n2nc(-n3cccc3CN(C)C)c3c2C(=O)N(c2ccc(N4CCCCC4=O)cc2)CC3)cc1 ) has log10(2PT) equal to 0.28
